System: E. coli T 7
Experiment: Hole test, inhibiting areola diameter, DST agar
Type: cell-based
Parameters: unit not given here
Settings: 100 μg/ml, medium DST agar
Starred links: 1 amine or outer side, 2 acyl side, 3 side chain; linkers in the order of their positions; H or OH if unused. Non-standard residues stand in square brackets, D forms with d. Residues, ends and D or L forms follow the SMILES beside them. ξ: configuration not given here. X1 = Cn1c(=NC(N)=O)ccn(C2SC(C(O)C(N[*:1])C(=O)[*:2])C(O)C2O)c1=O; Orn(N5-OH,N5-Ac) = CC(=O)N(O)CCC[C@H](N)C(=O)O; ξT = CC(O)C(N)C(=O)O; ξA = CC(N)C(=O)O
Measured Metric: Inhibiting areola diameter E. coli T 7
Returns: the value as a bare number; no unit string appended.

>>> result_value("CC(=O)N(O)CCC[C@H](N)C(=O)NC(C(=O)O)C(O)C1SC(n2ccc(=NC(N)=O)n(C)c2=O)C(O)C1O (stereo partly shown)")
18

Query: Supply reported Inhibiting areola diameter E. coli T 7 belonging to this compound: CC(=O)N(O)CCC[C@H](NC(=O)[C@H](CCCN(O)C(C)=O)NC(=O)[C@@H](N)CCCN(O)C(C)=O)C(=O)NC(C(=O)NC(C(=O)O)C(O)C1SC(n2ccc(=NC(N)=O)n(C)c2=O)C(O)C1O)C(C)O (stereo partly shown) [Compound 20] (H-[Orn(N5-OH,N5-Ac)][Orn(N5-OH,N5-Ac)][Orn(N5-OH,N5-Ac)][ξT][X1]-OH)
Response: 14

Query: Provide Inhibiting areola diameter E. coli T 7 value for the following compound: CC(=O)N(O)CCC[C@H](NC(=O)[C@H](CCCN(O)C(C)=O)NC(=O)[C@@H](N)CCCN(O)C(C)=O)C(=O)NC(C)C(=O)NC(C(=O)O)C(O)C1SC(n2ccc(=NC(N)=O)n(C)c2=O)C(O)C1O (stereo partly shown) [Compound 9] (H-[Orn(N5-OH,N5-Ac)][Orn(N5-OH,N5-Ac)][Orn(N5-OH,N5-Ac)][ξA][X1]-OH)
Response: 34

Query: Supply measured Inhibiting areola diameter E. coli T 7 of CC(=O)N(O)CCC[C@H](NC(=O)[C@H](CCCN(O)C(C)=O)NC(=O)[C@@H](N)CCCN(O)C(C)=O)C(=O)NC(C(=O)O)C(O)C1SC(n2ccc(=O)n(C)c2=O)C(O)C1O (stereo partly shown) in your reply.
Response: 18
